Reference source: paper PMC13136903

# System under test: T1, ADAR1 Zα (Homo sapiens, UniProt P55265 139-202)
# T1 sequence: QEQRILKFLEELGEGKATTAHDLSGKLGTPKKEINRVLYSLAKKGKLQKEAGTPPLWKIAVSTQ
# Test description: MST; 20 mM NaPi pH 6.4, 100 mM KCl, 1 mM DTT, 0.5 mM EDTA (LiCl replaces KCl where noted); ITC 35 C; MST 25 C with 20 nM protein (labelling without DTT); competition
# Reported conditions: protein: recombinant; tags: N-terminal 6xHis, thrombin site, T7 tag; no G4; transient structure
pKd: −log10 of the molar value.
Result type: pKd

[[record]]
binder = "UUACCGUUACCGUUACCGUUACCG (ssRNA) [TERRA-mutRNA]"
result_type = "pKd"
value_observed = 7.44

